system_under_test: glucagon receptor (Homo sapiens)
Sequence (P47871 26-477): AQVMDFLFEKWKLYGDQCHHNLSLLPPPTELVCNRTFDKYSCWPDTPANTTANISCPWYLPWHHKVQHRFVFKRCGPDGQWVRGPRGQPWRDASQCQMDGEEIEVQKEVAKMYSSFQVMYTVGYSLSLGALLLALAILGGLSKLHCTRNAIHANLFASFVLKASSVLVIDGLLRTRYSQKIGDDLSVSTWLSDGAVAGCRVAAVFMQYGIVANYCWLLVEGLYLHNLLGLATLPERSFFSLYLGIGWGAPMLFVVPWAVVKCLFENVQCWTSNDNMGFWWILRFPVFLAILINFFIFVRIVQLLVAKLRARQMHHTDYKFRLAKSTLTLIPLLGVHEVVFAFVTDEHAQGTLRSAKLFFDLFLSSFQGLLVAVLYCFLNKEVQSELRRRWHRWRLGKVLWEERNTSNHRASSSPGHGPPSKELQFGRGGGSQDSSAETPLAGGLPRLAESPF
test: glucagon receptor binding
Parameters: expressed in transfected cells; host or cells: HEK293
details: Table E; read-out: Receptor Binding IC50
Ends that are not written are not given here.
reported_metric: IC50 (nM)
Give the quantity in nM, number only.

IC50 reading for SQGTTSDYSKYLDSRRAQDFVQWLMNT-NH2 [[desHis^1, desPhe^6]Glucagon-NH2] : 130

* * *

system_under_test: GLP-1 receptor (Homo sapiens, UniProt P43220)
Construct: expressed in transfected cells; host or cells: HEK293
Sequence (P43220 24-463): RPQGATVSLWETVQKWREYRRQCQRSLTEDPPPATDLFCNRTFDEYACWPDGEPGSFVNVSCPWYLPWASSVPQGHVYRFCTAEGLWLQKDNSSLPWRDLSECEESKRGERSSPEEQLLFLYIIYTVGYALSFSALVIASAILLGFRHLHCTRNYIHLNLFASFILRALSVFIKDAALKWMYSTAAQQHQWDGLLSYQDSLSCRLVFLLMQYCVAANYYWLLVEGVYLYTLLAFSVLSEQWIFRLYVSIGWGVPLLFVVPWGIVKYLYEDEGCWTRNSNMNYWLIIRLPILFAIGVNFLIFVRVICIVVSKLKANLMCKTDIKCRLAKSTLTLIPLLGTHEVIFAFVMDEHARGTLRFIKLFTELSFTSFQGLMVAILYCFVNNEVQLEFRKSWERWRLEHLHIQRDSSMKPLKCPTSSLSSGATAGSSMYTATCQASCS
test: cAMP induction at the GLP-1 receptor (agonist activity), firefly luciferase reporter assay in HEK293 cells
Assay type: cell-based
details: Table 5; relative to standard
Bridge positions count the residues as written; N and C are the ends. Square brackets hold non-standard residues; d marks the D form. Side chains are listed from the residue outwards. Ends that are not written are not given here. PEG40kDa = 40 kDa polyethylene glycol; Ac‑Cys = acetylated cysteine; Aib = CC(C)(N)C(=O)O
Each entry below carries its recorded GLP-1R relative activity.
Give the quantity in %, number only.

In the examples that follow, each entry is paired with its recorded GLP-1R relative activity.
substance | reported_metric | numeric_readout
mt-226: as mt-218 but modified Lys at position 40 and Asn at position 24; SEQ ID NO: 23 (Y[Aib]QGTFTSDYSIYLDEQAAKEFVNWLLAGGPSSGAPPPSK([Glu-Ac‑Cys-PEG40kDa])-NH2; lactam 16-20) | GLP-1R relative activity | 29.90
mt-217: lactam 16-20 glucagon analog, Lys24 carrying Ala spacer, acetylated Cys and 40 kDa PEG; SEQ ID NO: 19 (Y[Aib]QGTFTSDYSIYLDEQAAKEFVK([Ala-Ac‑Cys-PEG40kDa])FLLAGGPSSGAPPPS-NH2; lactam 16-20) | GLP-1R relative activity | 11.26
mt-220: as mt-217 with Phe as the amino acid spacer; SEQ ID NO: 22 (Y[Aib]QGTFTSDYSIYLDEQAAKEFVK([Phe-Ac‑Cys-PEG40kDa])FLLAGGPSSGAPPPS-NH2; lactam 16-20) | GLP-1R relative activity | 13.89

Consider the record given below.
Measured GLP-1R relative activity for this entry mt-228: as mt-220 but modified Lys at position 40 and Asn at position 24; SEQ ID NO: 24 (Y[Aib]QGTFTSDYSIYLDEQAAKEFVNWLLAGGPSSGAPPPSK([Phe-Ac‑Cys-PEG40kDa])-NH2; lactam 16-20) on GLP-1 receptor (Homo sapiens, UniProt P43220): 19.86

// data source = patent US20140107021A1
